test: logP by HPLC on reversed-phase column (EEC Directive 79/831 Annex V.A8); type: physicochemical; conditions: HPLC on reversed-phase column (C 18), 40° C., 0.1% aqueous formic acid and acetonitrile, linear gradient 10% to 90% acetonitrile
Param threshold (3) applies to logP; output true (1) when value >= threshold, false (0) when value < threshold.

>>> df
                                   compound  category_label
0  Cn1nc(C(F)F)c(C(=O)N(Cc2cc(CC(C)(C)C)no2)C2CC2)c1F        true (1)
1  Cn1nc(C(F)F)c(C(=O)N(Cc2cc3ccccc3o2)C2CC2)c1F        true (1)
2  CCN(Cc1cn(CC)nc1C)C(=O)c1c(C(F)F)nn(C)c1Cl       false (0)
3  Cn1nc(C(F)F)c(C(=O)N(Cc2ccnc3cc(Cl)cc(Cl)c23)C2CC2)c1F        true (1)
4  Cc1cc(CN(C(=O)c2c(C(F)F)nn(C)c2Cl)C2CC2)c(C)n1-c1ccccc1        true (1)
5     CCCN(Cc1cccs1)C(=O)c1c(C(F)F)nn(C)c1F       false (0)
6  CC(NC(=O)c1c(C(F)F)nn(C)c1Cl)c1cc2ccccc2s1 (racemic)        true (1)
7  CC(C)N(Cc1cnn(-c2ccc(Cl)cc2)c1)C(=O)c1c(C(F)F)nn(C)c1Cl        true (1)

Ask: Please check the record Cn1nc(C(F)F)c(C(=S)N(Cc2csc3ccc(Cl)cc23)C2CC2)c1F and state if its logP is at or above 3.
Reply: true (1)

Ask: And what about the compound Cc1nn(-c2ccccc2)nc1CN(C(=S)c1c(C(F)F)nn(C)c1F)C1CC1 ?
Reply: true (1)

Ask: And what about the compound CN(Cc1cc(-c2ccccc2)no1)C(=O)c1c(C(F)F)nn(C)c1F ?
Reply: false (0)

Ask: And what about the compound Cn1nc(C(F)F)c(C(=O)N(Cc2cnc(Cl)cc2Cl)C2CC2)c1F ?
Reply: false (0)

Ask: And what about the compound Cn1nc(C(F)F)c(C(=O)N(Cc2csc3ccccc23)C2CC2)c1Cl ?
Reply: true (1)

Ask: And what about the compound C=CCN(Cc1csc(C)n1)C(=O)c1c(C(F)F)nn(C)c1Cl ?
Reply: false (0)

Ask: And what about the compound CN(Cc1cccnc1Cl)C(=O)c1c(C(F)F)nn(C)c1Cl ?
Reply: false (0)

---

tested on: Alternaria solani; assay: in vivo preventive test on Alternaria solani (tomato); details: 500 ppm of active ingredient, evaluated 7 days after inoculation
Field: label. Allowed values: T (Efficacy < 90%) or F (Efficacy >= 90%).

>>> print(df.to_string())
                                   molecule  category_label
0  CN(Cc1cscc1Br)C(=O)c1c(C(F)F)nn(C)c1F [Example 133]               T
1  CSc1ncc(C(C(C)C)N(C)C(=O)c2c(C(F)F)nn(C)c2F)c(C(F)(F)F)n1 (stereo not drawn) [Example 157]               T
2  CC(NC(=O)c1c(C(F)F)nn(C)c1Cl)c1cc2ccccc2s1 (racemic) [Example 81]               F
3  Cn1nc(C(F)F)c(C(=O)N(Cc2cccc3ccsc23)C2CC2)c1F [Example 93]               F
4  CC(c1cnc(Cl)c(Cl)c1)N(C(=O)c1c(C(F)F)nn(C)c1F)C1CC1 (stereo not drawn) [Example 121]               F
5  Cn1nc(C(F)F)c(C(=O)N(Cc2csc3ccc(Cl)cc23)C2CC2)c1F [Example 143]               F

Ask: Say whether its Efficacy is strictly beneath 90%. Entry: Cn1nc(C(F)F)c(C(=O)NC2CCCc3sccc32)c1Cl (stereo not drawn) [Example 103]
Reply: F

Ask: And what about the molecule CN(Cc1cnn(-c2ccccc2)c1)C(=O)c1c(C(F)F)nn(C)c1F [Example 109] ?
Reply: F

Ask: And what about the molecule Cn1nc(C(F)F)c(C(=O)N(Cc2cc(-c3ccccc3)no2)C2CC2)c1F [Example 111] ?
Reply: F

Ask: And what about the molecule Cn1nc(C(F)F)c(C(=O)NC2(c3cc4ccccc4o3)CCCC2)c1F [Example 75] ?
Reply: T

Ask: And what about the molecule Cc1cc(C(C)N(C(=O)c2c(C(F)F)nn(C)c2F)C2CC2)c(C)s1 (stereo not drawn) [Example 48] ?
Reply: F

Ask: And what about the molecule CC(NC(=O)c1c(C(F)F)nn(C)c1F)c1cc2ccccc2s1 (racemic) [Example 82] ?
Reply: F

Ask: And what about the molecule CN(Cc1sc2ccccc2c1Cl)C(=O)c1c(C(F)F)nn(C)c1F [Example 142] ?
Reply: T

Ask: And what about the molecule CN(Cc1nc(-c2ccccc2)no1)C(=O)c1c(C(F)F)nn(C)c1F [Example 114] ?
Reply: F

Ask: And what about the molecule Cc1ccsc1CN(C)C(=O)c1c(C(F)F)nn(C)c1F [Example 42] ?
Reply: T

---

assay: logP by HPLC on reversed-phase column (EEC Directive 79/831 Annex V.A8); type: physicochemical; settings: HPLC on reversed-phase column (C 18), 40° C., 0.1% aqueous formic acid and acetonitrile, linear gradient 10% to 90% acetonitrile
recorded metric: logP
One number for each entry.

Past entries and their recorded results:
>>> df
                                   molecule  reported
0  CN(Cc1cnn(-c2ccccc2)c1)C(=O)c1c(C(F)F)nn(C)c1Cl      2.40
1  Cc1ccsc1CN(C(=O)c1c(C(F)F)nn(C)c1Cl)C1CC1      3.02
2  Cc1nn(-c2ccccc2)nc1CN(C(=O)c1c(C(F)F)nn(C)c1F)C1CC1      3.29

# batch: return logP for each of the 6 molecules below
1. Cc1c(CN(C(=S)c2c(C(F)F)nn(C)c2F)C2CC2)sc2ccccc12
2. CC(c1csc2ccccc12)N(C(=S)c1c(C(F)F)nn(C)c1F)C1CC1 (racemic)
3. CC(C)N(Cc1ccc(Cl)nc1)C(=O)c1c(C(F)F)nn(C)c1Cl
4. Cn1nc(C(F)F)c(C(=O)N(Cc2cc(-c3ccccc3)no2)C2CC2)c1F
5. Cn1nc(C(F)F)c(C(=O)NCc2ccc(Cl)nc2)c1Cl
6. Cn1nc(C(F)F)c(C(=O)NCc2ccco2)c1Cl

Reply:
1: 4.31; 2: 4.44; 3: 2.49; 4: 2.92; 5: 1.82; 6: 1.86

---

assay: logP by HPLC on reversed-phase column (EEC Directive 79/831 Annex V.A8); type: physicochemical; conditions: HPLC on reversed-phase column (C 18), 40° C., 0.1% aqueous formic acid and acetonitrile, linear gradient 10% to 90% acetonitrile
Field: label. Allowed values: label 1 (logP < 2) or label 0 (logP >= 2).

Please review the entries below; each comes with its answer.
                                   molecule  category_label
0  Cn1nc(C(F)F)c(C(=S)N(Cc2cccc3ccsc23)C2CC2)c1F [Example 95]         label 0
1  CC(C)Oc1ccc(CN(C)C(=O)c2c(C(F)F)nn(C)c2Cl)cn1 [Example 101]         label 0
2  Cn1nc(C(F)F)c(C(=S)N(Cc2c(Cl)cncc2Cl)C2CC2)c1F [Example 117]         label 0
3  Cn1nc(C(F)F)c(C(=O)N(Cc2cc3ccccc3n2-c2ccccc2)C2CC2)c1F [Example 155]         label 0
4  Cn1nc(C(F)F)c(C(=O)N(Cc2ccnc3ccc(Cl)cc23)C2CC2)c1F [Example 137]         label 0
5  CCN(Cc1c(C)nn(CC)c1C)C(=O)c1c(C(F)F)nn(C)c1F [Example 79]         label 1
6  CC(c1cccnc1Cl)N(C(=O)c1c(C(F)F)nn(C)c1F)C1CC1 (stereo not drawn) [Example 50]         label 0
7  Cn1nc(C(F)F)c(C(=S)N(Cc2cc(C(F)(F)F)nc3ccccc23)C2CC2)c1F [Example 161]         label 0

Now examine the next entry.
Ask: Say whether its logP is strictly beneath 2. Entry: CCn1cc(CNC(=O)c2c(C(F)F)nn(C)c2F)c(C)n1 [Example 47]
Reply: label 1

---

assay: logP by HPLC on reversed-phase column (EEC Directive 79/831 Annex V.A8); type: physicochemical; conditions: HPLC on reversed-phase column (C 18), 40° C., 0.1% aqueous formic acid and acetonitrile, linear gradient 10% to 90% acetonitrile
Field: label. Allowed values: met (logP < 3) or not met (logP >= 3).

                                   molecule  category_label
0  Cn1nc(C(F)F)c(C(=O)NC2CCCc3sccc32)c1F (stereo not drawn)             met
1  Cn1nc(C(F)F)c(C(=O)NC2CCCc3sccc32)c1Cl (stereo not drawn)             met
2  COCCN(Cc1ccc(Cl)nc1)C(=O)c1c(C(F)F)nn(C)c1Cl             met
3  Cn1nc(C(F)F)c(C(=O)N(Cc2cc(CC(C)(C)C)no2)C2CC2)c1Cl         not met
4  CC(C1CC1)N(Cc1ccco1)C(=O)c1c(C(F)F)nn(C)c1F (stereo not drawn)             met
5  CC(c1cccc2ccsc12)N(C(=O)c1c(C(F)F)nn(C)c1F)C1CC1 (stereo not drawn)         not met

Ask: Say whether its logP is strictly beneath 3. Entry: Cn1nc(C(F)F)c(C(=O)N(Cc2cc(-c3ccc(Cl)cc3)no2)C2CC2)c1Cl
Reply: not met

Ask: And what about the molecule CN(Cc1ccnc(Cl)c1)C(=O)c1c(C(F)F)nn(C)c1Cl ?
Reply: met

Ask: And what about the molecule CCN(Cc1cn(CC)nc1C)C(=O)c1c(C(F)F)nn(C)c1F ?
Reply: met
